Some compounds, each annotated with its measured Synergy Score SNU-C2B.
System: SNU-C2B
test description: Drug combination screen (ATPlite, Synergy Score), SNU-C2B
conditions used: compound in combination with IgG1-hDR5-01-G56T-E430G + IgG1-hDR5-05-E430G; SNU-C2B; 72 hour ATPlite, 6x6 matrix
quantity measured: Synergy Score SNU-C2B

INSERT INTO measurements (compound, result) VALUES
  ('CC(=O)Nc1cccc(-n2c(=O)n(C3CC3)c(=O)c3c(Nc4ccc(I)cc4F)n(C)c(=O)c(C)c32)c1 [Trametinib]', 0.6),
  ('C[C@@]1(C(=O)Nc2ccc(F)nc2)CCCN1c1nc(Nc2cc(C3CC3)n[nH]2)c2cccn2n1 [BMS-754807]', 1.3),
  ('C[C@]1(O)C[C@@H](c2nc(-c3ccc4ccc(-c5ccccc5)nc4c3)c3c(N)nccn32)C1 [OSI-906]', 1),
  ('C[C@H](Nc1ncnc2nc[nH]c12)c1cc2cccc(Cl)c2c(=O)n1-c1ccccc1 [IPI-145]', 1),
  ('Nc1cccc2c1CN(C1CCC(=O)NC1=O)C2=O (stereo not drawn) [Lenalidomide]', 0.2),
  ('COC1=CC(c2cc3ccccc3[nH]2)=N/C1=C\c1[nH]c(C)cc1C [Obatoclax]', 4.7),
  ('C[C@]12C=CC(=O)C=C1CC[C@@H]1[C@@H]2C(=O)C[C@@]2(C)[C@H]1CC[C@]2(O)C(=O)CO [Prednisone]', 0.2),
  ('N.N.[Cl][Pt][Cl] [Cisplatin]', 12.9),
  ('O=C(CCCCCCC(=O)Nc1ccccc1)NO', 11);

---

System: DLD-1
test description: Drug combination screen (ATPlite, Synergy Score), DLD-1
conditions used: compound in combination with IgG1-hDR5-01-G56T-E430G + IgG1-hDR5-05-E430G; DLD-1; 120 hour ATPlite, 6x6 matrix
quantity measured: Synergy Score DLD-1

INSERT INTO assay_data (chem_smiles, experimental_target, readout_number) VALUES
  ('Cn1cc(C2=C(c3ccc(Cl)cc3Cl)C(=O)NC2=O)c2ccccc21', 'DLD-1', 0.5),
  ('C[C@]12C=CC(=O)C=C1CC[C@@H]1[C@@H]2C(=O)C[C@@]2(C)[C@H]1CC[C@]2(O)C(=O)CO', 'DLD-1', 0.1),
  ('C=CCc1cccc(/C=N/NC(=O)CN2CCN(Cc3ccccc3)CC2)c1O', 'DLD-1', 10.6),
  ('C[C@@H](Oc1cc(-c2cnn(C3CCNCC3)c2)cnc1N)c1c(Cl)ccc(F)c1Cl', 'DLD-1', 13.4),
  ('Cn1c2ccccc2c2c3c(c4c5ccccc5n(CCC#N)c4c21)CNC3=O', 'DLD-1', 2.9);

---

# Synergy Score DLD-1 values compiled below
Tested on: DLD-1
test description: Drug combination screen (ATPlite, Synergy Score), DLD-1
conditions used: compound in combination with IgG1-hDR5-01-G56T-E430G + IgG1-hDR5-05-E430G; DLD-1; 120 hour ATPlite, 6x6 matrix
quantity measured: Synergy Score DLD-1

INSERT INTO assay_data (chem_smiles, quantity_measured, result) VALUES
  ('O=C(CCCCCCC(=O)Nc1ccccc1)NO', 'Synergy Score DLD-1', 4.4),
  ('O=C1NC(=O)/C(=C/c2ccc3nccc(-c4ccncc4)c3c2)S1', 'Synergy Score DLD-1', 0.4),
  ('CC(C)=CCC/C(C)=C/CC/C(C)=C/CSc1ccccc1C(=O)O', 'Synergy Score DLD-1', 0.1),
  ('COCCn1c2c([n+](Cc3cnccn3)c1C)C(=O)c1ccccc1C2=O', 'Synergy Score DLD-1', 5.2),
  ('OCCn1cc(-c2ccc3c(c2)CC/C3=N\O)c(-c2ccncc2)n1', 'Synergy Score DLD-1', 0.1);
